Task for the reader: assign each of the following compounds its reported Efficacy (% of 1).
- Test system: endosomes of Jurkat lymphocytes
- assayText: Endosome disruption in Jurkat lymphocytes: release of carboxyfluorescein from disulfide probe Compound 2, flow cytometry
- details: Table 2; % of the effect of compound 1, calculated span of dose-response curve, ± standard deviation; Jurkat, 14 h
Non-standard residues stand in square brackets, D forms with d. Residues, ends and D or L forms follow the SMILES beside them. Aib = CC(C)(N)C(=O)O
Write the number in % without appending the unit.

Param readout= Efficacy (% of 1); system= endosomes of Jurkat lymphocytes; entry= CC(C)[C@H](NC(=O)[C@@H](NC(=O)[C@@H]1CCCN1C(=O)[C@@H]1CCCN1C(=O)[C@H](Cc1c[nH]c2ccccc12)NC(=O)[C@H](Cc1ccc(O)cc1)NC(=O)[C@H](C)NC(=O)[C@H](Cc1c[nH]c2ccccc12)NC(=O)[C@H](Cc1c[nH]c2ccccc12)NC(=O)C(C)(C)NC(=O)C(C)(C)NC(=O)C(C)(C)NC(=O)C(C)(C)N)C(C)C)C(N)=O [Compound 44] (H-[Aib][Aib][Aib][Aib]WWAYWPPVV-NH2) ; returns value.
98

Notebook: pull reported Efficacy (% of 1) for endosomes of Jurkat lymphocytes, entry CC(C)[C@H](NC(=O)[C@@H](NC(=O)[C@@H]1CCCN1C(=O)[C@@H]1CCCN1C(=O)[C@H](Cc1c[nH]c2ccccc12)NC(=O)[C@H](Cc1c[nH]c2ccccc12)NC(=O)[C@H](C)NC(=O)[C@H](Cc1c[nH]c2ccccc12)NC(=O)[C@H](Cc1ccc(O)cc1)NC(=O)C(C)(C)NC(=O)C(C)(C)NC(=O)C(C)(C)NC(=O)C(C)(C)N)C(C)C)C(N)=O [Compound 52] (H-[Aib][Aib][Aib][Aib]YWAWWPPVV-NH2)
105
